Every entry's value here was drawn from BindingDB's records for doi:10.1016/j.bmcl.2004.08.039.

Target: Dimer of Gag-Pol polyprotein [501-599,Q508K,L534I,L564I,C568A,C596A] (Human immunodeficiency virus 1, UniProt P03367, C568A/C596A/L534I/L564I/Q508K)
Construct: 501-599
Assay: Protease Inhibition Assay
Conditions: pH 6.4; 25 °C
Please respond with 1 (yes) when measured Ki is strictly beneath 0.3 nM, and with 0 (no) in all other cases.

State whether 0.3 nM exceeds Ki recorded for "O=C(N[C@H]1c2ccccc2C[C@H]1O)[C@H](Cc1ccccc1)C[C@H](O)CN1C(=O)[C@@H](Cc2cccc(O)c2)C[C@@H]1Cc1ccccc1" .
1 (yes)

State whether 0.3 nM exceeds Ki recorded for "N#CCOc1cccc(C[C@H]2C[C@H](Cc3ccccc3)N(C[C@@H](O)C[C@@H](Cc3ccccc3)C(=O)N[C@H]3c4ccccc4C[C@H]3O)C2=O)c1" .
1 (yes)

State whether 0.3 nM exceeds Ki recorded for "O=C(NCCOCCO)c1cccc(C[C@H]2C[C@H](Cc3ccccc3)N(C[C@@H](O)C[C@@H](Cc3ccccc3)C(=O)N[C@H]3c4ccccc4C[C@H]3O)C2=O)c1" .
1 (yes)

State whether 0.3 nM exceeds Ki recorded for O=C(N[C@H]1c2ccccc2C[C@H]1O)[C@H](Cc1ccccc1)C[C@H](O)CN1C(=O)C(Cc2ccncc2)C[C@@H]1Cc1ccccc1 (some centres undefined) .
0 (no)

State whether 0.3 nM exceeds Ki recorded for N#Cc1ccc(CC2C[C@H](Cc3ccccc3)N(C[C@@H](O)C[C@@H](Cc3ccccc3)C(=O)N[C@H]3c4ccccc4C[C@H]3O)C2=O)cc1 (some centres undefined) .
0 (no)

State whether 0.3 nM exceeds Ki recorded for "COC(=O)c1cccc(C[C@H]2C[C@H](Cc3ccccc3)N(C[C@@H](O)C[C@@H](Cc3ccccc3)C(=O)N[C@H]3c4ccccc4C[C@H]3O)C2=O)c1" .
0 (no)

State whether 0.3 nM exceeds Ki recorded for Nc1ccc(CC2C[C@H](Cc3ccccc3)N(C[C@@H](O)C[C@@H](Cc3ccccc3)C(=O)N[C@H]3c4ccccc4C[C@H]3O)C2=O)cc1 (some centres undefined) .
0 (no)

State whether 0.3 nM exceeds Ki recorded for "O=C(NCCN1CCOCC1)c1cccc(C[C@H]2C[C@H](Cc3ccccc3)N(C[C@@H](O)C[C@@H](Cc3ccccc3)C(=O)N[C@H]3c4ccccc4C[C@H]3O)C2=O)c1" .
1 (yes)

State whether 0.3 nM exceeds Ki recorded for "CCOC(=O)CNC(=O)Nc1cccc(C[C@H]2C[C@H](Cc3ccccc3)N(C[C@@H](O)C[C@@H](Cc3ccccc3)C(=O)N[C@H]3c4ccccc4C[C@H]3O)C2=O)c1" .
1 (yes)

---

Molecular target: Dimer of Gag-Pol polyprotein [501-599,Q508K,L534I,L564I,C568A,C596A] (Human immunodeficiency virus 1, UniProt P03367, C568A/C596A/L534I/L564I/Q508K)
Construct: 501-599
Experiment: Protease Inhibition Assay
Settings: pH 6.4; 25 °C
measured_property: pKi
Give only the number. pKi is defined as minus log10 of concentration in molar units.

Item: "N#Cc1cccc(C[C@H]2C[C@H](Cc3ccccc3)N(C[C@@H](O)C[C@@H](Cc3ccccc3)C(=O)N[C@H]3c4ccccc4C[C@H]3O)C2=O)c1" | pKi: 10.30

Item: "NC(=O)COc1cccc(C[C@H]2C[C@H](Cc3ccccc3)N(C[C@@H](O)C[C@@H](Cc3ccccc3)C(=O)N[C@H]3c4ccccc4C[C@H]3O)C2=O)c1" | pKi: 10.05

Item: "NC(=O)c1cccc(C[C@H]2C[C@H](Cc3ccccc3)N(C[C@@H](O)C[C@@H](Cc3ccc(OCCO)cc3)C(=O)N[C@H]3c4ccccc4C[C@H]3O)C2=O)c1" | pKi: 10.30

Item: "CCNC(=O)Nc1cccc(C[C@H]2C[C@H](Cc3ccccc3)N(C[C@@H](O)C[C@@H](Cc3ccccc3)C(=O)N[C@H]3c4ccccc4C[C@H]3O)C2=O)c1" | pKi: 9.70

Item: "NC(=O)c1cccc(C[C@H]2C[C@H](Cc3ccccc3)N(C[C@@H](O)C[C@@H](Cc3ccccc3)C(=O)N[C@H]3c4ccccc4C[C@H]3O)C2=O)c1" | pKi: 10.00

Item: "Nc1cccc(C[C@H]2C[C@H](Cc3ccccc3)N(C[C@@H](O)C[C@@H](Cc3ccccc3)C(=O)N[C@H]3c4ccccc4C[C@H]3O)C2=O)c1" | pKi: 10.00
